// values below are reported Inhibition
- System: Acinetobacter baumannii
- conditionInfo: Concentration 32 ug.mL-1;; ASSAY_TEST Inhibition of Bacterial Growth; detection method Absorption (OD600); MEDIA CAMHB; plate type 384well; NBS; CORNING #3640; time 18 hr
- Description: Antibacterial activity against Acinetobacter baumannii ATCC 19606 (CO-ADD:GN_034); MIC in CAMBH media using NBS plates, by OD600
Among all 21,000 compounds or so, fewer than 10 showed an effect of 50% or more. The list is a sample of the results. Measured potencies and affinities stand elsewhere.
Record the value in %, omitting the unit from your answer.

>>> readoutnumber("COc1cccc(-n2ccn3c(SCC(=O)c4ccc(C)cc4)nnc3c2=O)c1")
-4.26
>>> readoutnumber("Cc1ccc(F)cc1NC(=O)CSc1nc2ccccc2n2c(C)nnc12")
5.49
>>> readoutnumber("Cc1ccc(NC(=O)Cn2nc3c4c5c(sc4ncn3c2=O)CCCC5)c(Cl)c1")
-9.66
>>> readoutnumber("COc1ccccc1NC(=O)Cn1nc2c3c4c(sc3ncn2c1=O)CCCC4")
-5.75
>>> readoutnumber("CCOc1ccc(-n2ccn3c(SCC(=O)c4ccc(C)cc4)nnc3c2=O)cc1")
4.11
>>> readoutnumber("CCc1nnc2ccc(S(=O)(=O)N(Cc3ccc(OC)cc3)c3cccc(F)c3)cn12")
-12.55

So for O=C(Cn1nc2nc(Nc3ccc(F)cc3)ccn2c1=O)Nc1cc(F)ccc1F , the logged Inhibition turned out to be 12.46

So for CCOc1ccc(C(=O)Cn2nc3n(CCC(C)C)c(=O)c4sccc4n3c2=O)cc1 , the logged Inhibition turned out to be 1.79

====

- System: Acinetobacter baumannii
- conditionInfo: Concentration 32 ug.mL-1;; ASSAY_TEST Inhibition of Bacterial Growth; detection method Absorption (OD600); MEDIA CAMHB; plate type 384well; NBS; CORNING #3640; time 18 hr
Out of some 21,000 compounds screened, fewer than 10 showed an effect of 50% or more. Not all results are given here. Entries with a potency or affinity are not part of this list.
measuredEndpoint: Inhibition (%)
Record the value in %, omitting the unit from your answer.

Before answering, review these 2 worked examples.
>>> readoutnumber("COc1ccc(NC(=O)Cn2nc3c4c5c(sc4ncn3c2=O)CCCC5)cc1")
-5.35
>>> readoutnumber("Cc1ccc(Oc2nccn3c(=O)n(CC(=O)Nc4ccc(C)cc4Br)nc23)cc1")
2.31

So for CCc1nnc2c(S(=O)(=O)N(Cc3cccc(C)c3)c3cccc(Cl)c3)cccn12 , the logged Inhibition turned out to be 8.48

So for O=C(CSc1nnc2c(=O)n(-c3cccc(F)c3)ccn12)Nc1ccc(Br)cc1 , the logged Inhibition turned out to be 3.4

So for Cc1ccc(-c2ccc3nn(CC(=O)Nc4ccc(C#N)cc4)c(=O)n3n2)cc1C , the logged Inhibition turned out to be 6.14
